Tested On: UniProt Q60805
Sequence (Q60805 whole entry): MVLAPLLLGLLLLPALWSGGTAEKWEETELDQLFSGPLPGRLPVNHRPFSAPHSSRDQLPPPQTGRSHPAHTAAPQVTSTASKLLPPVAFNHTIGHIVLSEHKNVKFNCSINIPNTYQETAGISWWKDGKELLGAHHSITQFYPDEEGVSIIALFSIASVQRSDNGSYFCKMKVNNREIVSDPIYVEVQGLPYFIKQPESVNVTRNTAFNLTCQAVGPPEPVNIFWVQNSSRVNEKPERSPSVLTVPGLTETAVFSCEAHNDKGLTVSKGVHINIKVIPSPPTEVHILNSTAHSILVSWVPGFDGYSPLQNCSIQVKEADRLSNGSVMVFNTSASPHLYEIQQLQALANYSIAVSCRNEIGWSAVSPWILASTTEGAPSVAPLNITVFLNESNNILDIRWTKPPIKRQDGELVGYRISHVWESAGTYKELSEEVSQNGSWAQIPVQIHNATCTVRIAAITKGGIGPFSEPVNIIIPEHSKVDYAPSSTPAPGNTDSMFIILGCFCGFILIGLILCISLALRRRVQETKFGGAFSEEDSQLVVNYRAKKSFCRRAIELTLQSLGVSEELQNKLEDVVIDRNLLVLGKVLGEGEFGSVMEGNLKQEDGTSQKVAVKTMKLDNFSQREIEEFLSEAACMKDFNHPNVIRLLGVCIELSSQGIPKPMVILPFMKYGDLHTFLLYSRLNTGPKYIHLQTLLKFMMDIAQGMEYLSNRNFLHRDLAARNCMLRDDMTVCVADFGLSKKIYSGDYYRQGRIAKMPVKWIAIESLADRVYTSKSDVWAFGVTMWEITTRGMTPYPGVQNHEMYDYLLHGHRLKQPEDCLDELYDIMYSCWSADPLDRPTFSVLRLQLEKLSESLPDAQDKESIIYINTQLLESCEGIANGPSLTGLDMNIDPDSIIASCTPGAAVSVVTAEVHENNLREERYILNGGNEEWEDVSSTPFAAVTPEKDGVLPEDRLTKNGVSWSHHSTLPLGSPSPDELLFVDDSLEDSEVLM
Assay Text: Inhibition of Mer in mouse BaF3 cells
Observation Type: pIC50
# pIC50 is unitless: minus log10 of the molar concentration; print number only

Structure Smiles String: CC(C)n1cc(C(=O)Nc2ccc(Oc3ncnc4c3CN(C(=O)CCN3CCCC3)C4)c(F)c2)c(=O)n(-c2ccc(F)cc2)c1=O
pIC50: 6.55

Structure Smiles String: CC(C)n1cc(C(=O)Nc2ccc(Oc3ncnc4c3CCN(C(=O)C3CCN(C)CC3)C4)c(F)c2)c(=O)n(-c2ccc(F)cc2)c1=O
pIC50: 6.20

Q: // pIC50 lookup, key: "CC(C)n1cc(C(=O)Nc2ccc(Oc3ncnc4c3CCN(C3CN(C)C3)C4)c(F)c2)c(=O)n(-c2ccc(F)cc2)c1=O"
Result: 7.62

Q: Quick check: pIC50 of "CC(C)n1cc(C(=O)Nc2ccc(Oc3ncnc4c3CN(C)C4)c(F)c2)c(=O)n(-c2ccc(F)cc2)c1=O" ?
Result: 5.59

Q: Need pIC50, item "CC(C)n1cc(C(=O)Nc2ccc(Oc3ncnc4c3CC(=O)N4)c(F)c2)c(=O)n(-c2ccc(F)cc2)c1=O"
Result: 6.55

Q: Need pIC50 of "CN1CCC(CN2CCc3c(ncnc3Oc3ccc(NC(=O)c4cn(C5CCCC5)c(=O)n(-c5ccc(F)cc5)c4=O)cc3F)C2)CC1" , thanks.
Result: 7.47

Q: Would you mind telling me what pIC50 value was observed for "Cc1ccc(-n2c(=O)c(C(=O)Nc3ccc(Oc4ncnc5c4CCN(CC4CCN(C)CC4)C5)c(F)c3)cn(CC3CC3)c2=O)nc1" ?
Result: 6.68

Q: I have this molecule here, "CC(C)n1cc(C(=O)Nc2ccc(Oc3ncnc4c3CN(C(=O)C3CC3)C4)c(F)c2)c(=O)n(-c2ccc(F)cc2)c1=O" , and I need its recorded pIC50.
Result: 7.47

Q: I'd like to know its pIC50. The molecule in question is "Cc1ccc(-n2c(=O)c(C(=O)Nc3ccc(Oc4ncnc5c4CCN(CC4CCN(C)CC4)C5)c(F)c3)cn(C3CCCC3)c2=O)nc1"
Result: 6.74

Q: Query (molecule): "CC(C)n1cc(C(=O)Nc2ccc(Oc3ncnc4c3CCN(C)C4)c(F)c2)c(=O)n(-c2ccc(F)cc2)c1=O" ; field requested: pIC50
Result: 6.24

Q: Dear colleague, I am looking for the recorded pIC50 of the following molecule: "CC(C)n1cc(C(=O)Nc2ccc(Oc3ncnc4c3CCN(CC3CN(C)C3)C4)c(F)c2)c(=O)n(-c2ccc(F)cc2)c1=O"
Result: 7.04

src = ChEMBL document CHEMBL4823291
